The values you see were collected from patent US12110294B2.

Assignment: determine reported log10(EC50) for the given compounds.
# assay.system: CD73 activity in MDA-MB-231-GFP cells (Homo sapiens, UniProt P21589)
# Construct: endogenous in cells; host or cells: MDA-MB-231-GFP cells
# experimental.protocol: MDA-MB-231 Cell Based CD73 Activity Assay (DMEM)
# condition: 3000 cells per well, DMEM medium with 10% human plasma, overnight compound treatment, AMP 200 uM
// do not treat as linear: log10 of EC50, unit nM

Item: CC1(C)CN(C(=O)c2ccc([C@H]3C[C@@H]3c3cc(-c4c[nH]c(=O)[nH]c4=O)nn4ccnc34)cc2)C1 (racemic) | log10(EC50): 0.94

Measured log10(EC50) of O=c1[nH]cc(-c2cc([C@@H]3C[C@H]3c3ccc(F)c(F)c3)c3nccn3n2)c(=O)[nH]1 (racemic) : 0.67

Record O=C(c1cccc([C@H]2C[C@@H]2c2cc(-c3c[nH]c(=O)[nH]c3=O)nn3ccnc23)c1)N1CC(C(F)(F)F)C1 (racemic) , field log10(EC50): 0.64

The recorded log10(EC50) for O=c1[nH]cc(-c2cc([C@H]3C[C@@H]3c3ccc(C(F)(F)F)cc3F)c3nccn3n2)c(=O)[nH]1 (racemic) is 1.59

Entry under test: O=c1[nH]cc(-c2cc([C@H]3C[C@@H]3c3cc4c(ccn4CC(F)(F)F)cn3)c3nccn3n2)c(=O)[nH]1 (racemic) . Its log10(EC50) was -0.77

Lab note: measured log10(EC50) of N#Cc1ccc([C@H]2C[C@@H]2c2cc(-c3c[nH]c(=O)[nH]c3=O)nn3ccnc23)cc1OC(F)(F)F (racemic) was 1.54

###

Please provide measured IC50 for the entries that follow.
# assay.system: CD73 (Homo sapiens, UniProt P21589)
# Construct: purchased R&D system
# experimental.protocol: CD73 Biochemical IC50 Assay
# condition: final AMP 15 uM, final CD73 0.3 nM, 25 mM Tris pH 7.4, 5 mM MgCl2, no phosphate
Return type: number; implicit unit nM.

Reading of IC50 for O=c1[nH]cc(-c2cc([C@@H]3C[C@H]3c3cccc(F)c3F)c3nccn3n2)c(=O)[nH]1 (racemic) with CD73 (Homo sapiens, UniProt P21589): 18.6

Bench note, CD73 (Homo sapiens, UniProt P21589): O=c1[nH]cc(-c2cc([C@@H]3C[C@H]3c3ccc(F)cc3F)c3nccn3n2)c(=O)[nH]1 (racemic) , IC50 reads 5.49

Fill in: CD73 (Homo sapiens, UniProt P21589) IC50 for N#Cc1cc([C@@H]2C[C@H]2c2cc(-c3c[nH]c(=O)[nH]c3=O)nn3ccnc23)ccc1F (racemic) = 14.7

For O=c1[nH]cc(-c2cc([C@@H]3C[C@H]3c3ccccc3F)c3nccn3n2)c(=O)[nH]1 (racemic) on CD73 (Homo sapiens, UniProt P21589), measured IC50 was 16.8

Observed IC50, CD73 (Homo sapiens, UniProt P21589), O=c1[nH]cc(-c2cc([C@@H]3C[C@@]3(F)c3ccccc3)c3nccn3n2)c(=O)[nH]1 (racemic) : 35

IC50 value, target or system CD73 (Homo sapiens, UniProt P21589), for COC(=O)c1ccccc1[C@H]1C[C@@H]1c1cc(-c2c[nH]c(=O)[nH]c2=O)nn2ccnc12 : 147

N#Cc1cccc([C@H]2C[C@@H]2c2cc(-c3c[nH]c(=O)[nH]c3=O)nn3ccnc23)c1 on CD73 (Homo sapiens, UniProt P21589) gives IC50 = 10.7

Item N#Cc1ccccc1[C@H]1C[C@@H]1c1cc(-c2c[nH]c(=O)[nH]c2=O)nn2ccnc12 ; assay system CD73 (Homo sapiens, UniProt P21589); IC50 reported as 17.5

Hey, CD73 (Homo sapiens, UniProt P21589) data for O=c1[nH]cc(-c2cc([C@@H]3C[C@H]3c3ccc(C(F)(F)F)c(F)c3)c3nccn3n2)c(=O)[nH]1 (racemic) : IC50 came out at 98.4

For the molecule O=c1[nH]cc(-c2cc([C@@H]3C[C@H]3c3ccc(F)c(F)c3F)c3nccn3n2)c(=O)[nH]1 (racemic) , the measured IC50 on CD73 (Homo sapiens, UniProt P21589) was 18.2

Item O=c1[nH]cc(-c2cc([C@@H]3C[C@H]3c3cccc(Cl)c3)c3nccn3n2)c(=O)[nH]1 (racemic) was tested on CD73 (Homo sapiens, UniProt P21589); the reported IC50 is 14.3

The reported IC50 value, CD73 (Homo sapiens, UniProt P21589), for O=c1[nH]cc(-c2cc([C@@H]3C[C@H]3c3ccc(F)cc3)c3nccn3n2)c(=O)[nH]1 (racemic) reads 2.36

Simply: O=c1[nH]cc(-c2cc([C@@H]3C[C@H]3C3CC(F)(F)C3)c3nccn3n2)c(=O)[nH]1 (racemic) , CD73 (Homo sapiens, UniProt P21589), IC50 = 105

Simply: O=c1[nH]cc(-c2cc([C@H]3C[C@@H]3c3ccccc3)c3ncc(F)n3n2)c(=O)[nH]1 (racemic) , CD73 (Homo sapiens, UniProt P21589), IC50 = 15.7

###

# assay.system: CD73 activity in MDA-MB-231-GFP cells (Homo sapiens, UniProt P21589)
# Construct: endogenous in cells; host or cells: MDA-MB-231-GFP cells
# Sequence (P21589 27-549): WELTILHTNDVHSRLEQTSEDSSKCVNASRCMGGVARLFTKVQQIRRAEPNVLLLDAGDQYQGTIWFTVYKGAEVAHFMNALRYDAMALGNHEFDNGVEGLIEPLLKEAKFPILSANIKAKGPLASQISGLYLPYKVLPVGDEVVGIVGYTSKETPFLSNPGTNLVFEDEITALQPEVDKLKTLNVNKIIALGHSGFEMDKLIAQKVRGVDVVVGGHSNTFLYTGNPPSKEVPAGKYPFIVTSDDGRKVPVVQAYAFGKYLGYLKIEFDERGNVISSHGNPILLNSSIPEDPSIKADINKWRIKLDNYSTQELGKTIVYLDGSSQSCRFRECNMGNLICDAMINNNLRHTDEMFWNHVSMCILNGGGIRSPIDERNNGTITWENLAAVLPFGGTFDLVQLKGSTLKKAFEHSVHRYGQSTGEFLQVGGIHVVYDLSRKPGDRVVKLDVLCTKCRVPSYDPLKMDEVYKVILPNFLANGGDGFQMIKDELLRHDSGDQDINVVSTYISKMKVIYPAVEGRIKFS
# experimental.protocol: MDA-MB-231 Cell Based CD73 Activity Assay (DMEM)
# condition: 3000 cells per well, DMEM medium with 10% human plasma, overnight compound treatment, AMP 200 uM
Decide using EC50 alone. Strictly below 20 nM: true. Equal to or above 20 nM: false.

Say whether its EC50 is strictly beneath 20 nM. Entry: O=c1[nH]cc(-c2cc([C@H]3C[C@@H]3c3ccc4cnn(CC5CC5(F)F)c4c3)c3nccn3n2)c(=O)[nH]1 (mixture of isomers) [Example 118]
true

Identify whether the compound O=C1N(CC2(F)CC2)c2cc([C@H]3C[C@@H]3c3cc(-c4c[nH]c(=O)[nH]c4=O)nn4c(F)cnc34)ccc2C12CC2 (racemic) [Example 735] records EC50 below 20 nM.
true

Is 20 nM strictly greater than the compound's reported EC50? compound: N#Cc1ccc([C@H]2C[C@@H]2c2cc(-c3c[nH]c(=O)[nH]c3=O)nn3c(F)cnc23)nc1 (racemic) [Example 151]
true

Does O=c1[nH]cc(-c2cc([C@H]3C[C@@H]3c3ccc(C(F)F)cn3)c3nccn3n2)c(=O)[nH]1 (racemic) [Example 379] have EC50 strictly under 20 nM?
true

Quick check: does O=c1[nH]cc(-c2cc([C@H]3C[C@@H]3c3ccc(OC(F)(F)F)cc3)c3nccn3n2)c(=O)[nH]1 (racemic) [Example 359] have EC50 under 20 nM?
false

Please state whether EC50 is below 20 nM for O=c1[nH]cc(-c2cc(N3CCC(CC(F)(F)F)C3)c3nccn3n2)c(=O)[nH]1 (racemic) [Example 452]
false

Would you kindly verify if EC50 of O=c1[nH]cc(-c2cc(N3C[C@@H]4C[C@H]3C(F)(F)C4)c3nccn3n2)c(=O)[nH]1 [Example 644] is strictly less than 20 nM?
false

Is 20 nM strictly greater than the compound's reported EC50? compound: O=C(c1ccc([C@H]2C[C@@H]2c2cc(-c3c[nH]c(=O)[nH]c3=O)nn3ccnc23)cc1)N1CC(C(F)(F)F)C1 (racemic) [Example 291]
true

Strictly below 20 nM: is that where EC50 of N#Cc1nn(CC(F)(F)F)c2cc([C@H]3C[C@@H]3c3cc(-c4c[nH]c(=O)[nH]c4=O)nn4ccnc34)ccc12 (racemic) [Example 362] sits?
true

Answer whether the compound O=c1[nH]cc(-c2cc([C@H]3C[C@@H]3c3ccc4c(c3)OC(F)(F)O4)c3ncc(F)n3n2)c(=O)[nH]1 (racemic) [Example 278] has EC50 strictly less than 20 nM
false

Please check: EC50 for CNC(=O)c1cccc([C@H]2C[C@@H]2c2cc(-c3c[nH]c(=O)[nH]c3=O)nn3ccnc23)c1 (racemic) [Example 286] , strictly under 20 nM or not?
true

Item O=C(c1ccc([C@H]2C[C@@H]2c2cc(-c3c[nH]c(=O)[nH]c3=O)nn3ccnc23)cc1)N1CCC(F)(F)C1 (racemic) [Example 305] : EC50 beneath 20 nM, strictly?
false

Strictly below 20 nM: is that where EC50 of O=c1[nH]cc(-c2cc([C@H]3C[C@@H]3c3ccc4ncsc4c3)c3nc(C4CC4)cn3n2)c(=O)[nH]1 (racemic) [Example 143] sits?
true
